Target: human TLR7 (Homo sapiens, UniProt Q9NYK1)
Sequence (Q9NYK1 27-1049): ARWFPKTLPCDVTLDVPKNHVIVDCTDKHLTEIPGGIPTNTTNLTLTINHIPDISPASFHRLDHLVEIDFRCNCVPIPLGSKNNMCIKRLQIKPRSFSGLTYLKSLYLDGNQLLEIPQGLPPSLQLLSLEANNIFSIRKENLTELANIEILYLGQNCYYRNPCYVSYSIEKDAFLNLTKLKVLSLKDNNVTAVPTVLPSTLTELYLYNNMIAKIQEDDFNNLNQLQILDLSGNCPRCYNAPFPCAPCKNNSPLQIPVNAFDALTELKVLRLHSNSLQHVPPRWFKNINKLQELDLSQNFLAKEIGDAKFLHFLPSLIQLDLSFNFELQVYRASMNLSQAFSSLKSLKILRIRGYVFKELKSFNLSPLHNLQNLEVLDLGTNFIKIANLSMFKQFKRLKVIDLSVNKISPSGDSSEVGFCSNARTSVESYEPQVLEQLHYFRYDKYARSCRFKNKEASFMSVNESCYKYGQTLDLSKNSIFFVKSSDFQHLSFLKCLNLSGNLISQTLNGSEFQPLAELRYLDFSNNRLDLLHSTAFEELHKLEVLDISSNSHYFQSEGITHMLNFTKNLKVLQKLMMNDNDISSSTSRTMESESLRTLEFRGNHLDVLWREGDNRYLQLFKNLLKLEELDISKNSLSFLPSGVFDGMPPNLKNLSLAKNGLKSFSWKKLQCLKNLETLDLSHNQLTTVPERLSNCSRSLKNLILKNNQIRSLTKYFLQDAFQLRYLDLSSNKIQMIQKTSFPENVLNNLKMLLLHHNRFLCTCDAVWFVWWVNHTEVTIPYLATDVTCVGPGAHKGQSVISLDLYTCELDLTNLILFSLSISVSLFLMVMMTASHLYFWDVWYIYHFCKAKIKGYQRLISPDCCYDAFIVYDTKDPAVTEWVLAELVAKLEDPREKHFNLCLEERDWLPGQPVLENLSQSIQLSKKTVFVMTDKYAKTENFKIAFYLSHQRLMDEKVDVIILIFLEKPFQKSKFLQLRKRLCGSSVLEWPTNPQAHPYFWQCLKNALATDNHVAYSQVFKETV
Assay: TLR7 inhibition reporter assay (HEK-Blue cells, SEAP reporter, gardiquimod stimulation)
Settings: HEK-Blue cells overexpressing human TLR7, SEAP reporter, gardiquimod 7.5 μM
pIC50: −log10 of the molar value.
Measurement Name: pIC50

>>> df
                                   compound                            assayed_system  measurement_name      measured
0  COc1ccc2nc(Cl)c(CN3CCC(c4ccc5[nH]c(-c6ccnc7[nH]ncc67)c(C(C)C)c5c4)CC3)cc2c1  human TLR7 (Homo sapiens, UniProt Q9NYK1)             pIC50  6.00 to 7.00
1  CC(C)c1c(-c2ccnc3[nH]ncc23)[nH]c2ccc(C3CCNCC3)cc12  human TLR7 (Homo sapiens, UniProt Q9NYK1)             pIC50        > 7.00
2  CCc1c(-c2ccnc3[nH]ncc23)[nH]c2ccc(C3CCN(CC(N)=O)CC3)cc12  human TLR7 (Homo sapiens, UniProt Q9NYK1)             pIC50        > 7.00
3  Cc1nnn2ccc(-c3[nH]c4ccc(C5CCN(C6CCOCC6)CC5)cc4c3C(C)C)cc12  human TLR7 (Homo sapiens, UniProt Q9NYK1)             pIC50        > 7.00
4  CNCCN1CCC(c2ccc3[nH]c(-c4cncc5ccccc45)c(C)c3c2)CC1 [Example 663]  human TLR7 (Homo sapiens, UniProt Q9NYK1)             pIC50  4.30 to 6.00

Kindly consider the entry below.
## Input Hello, please tell me recorded pIC50 for this one: Cc1nc2c(C)cc(-c3[nH]c4ccc(C5CCN(CC(=O)N(C)C)CC5)cc4c3C(C)C)cn2c1C
## Output > 7.00
